Each recorded value in this set is attributed to patent US8148391B2.

I'd appreciate it if you could supply IC50 values for the items below.
STUDY_SYSTEM: baculovirus-expressed ALK (Homo sapiens)
Construct: host or cells: baculovirus expression system
Sequence (Q9UM73 19-1620): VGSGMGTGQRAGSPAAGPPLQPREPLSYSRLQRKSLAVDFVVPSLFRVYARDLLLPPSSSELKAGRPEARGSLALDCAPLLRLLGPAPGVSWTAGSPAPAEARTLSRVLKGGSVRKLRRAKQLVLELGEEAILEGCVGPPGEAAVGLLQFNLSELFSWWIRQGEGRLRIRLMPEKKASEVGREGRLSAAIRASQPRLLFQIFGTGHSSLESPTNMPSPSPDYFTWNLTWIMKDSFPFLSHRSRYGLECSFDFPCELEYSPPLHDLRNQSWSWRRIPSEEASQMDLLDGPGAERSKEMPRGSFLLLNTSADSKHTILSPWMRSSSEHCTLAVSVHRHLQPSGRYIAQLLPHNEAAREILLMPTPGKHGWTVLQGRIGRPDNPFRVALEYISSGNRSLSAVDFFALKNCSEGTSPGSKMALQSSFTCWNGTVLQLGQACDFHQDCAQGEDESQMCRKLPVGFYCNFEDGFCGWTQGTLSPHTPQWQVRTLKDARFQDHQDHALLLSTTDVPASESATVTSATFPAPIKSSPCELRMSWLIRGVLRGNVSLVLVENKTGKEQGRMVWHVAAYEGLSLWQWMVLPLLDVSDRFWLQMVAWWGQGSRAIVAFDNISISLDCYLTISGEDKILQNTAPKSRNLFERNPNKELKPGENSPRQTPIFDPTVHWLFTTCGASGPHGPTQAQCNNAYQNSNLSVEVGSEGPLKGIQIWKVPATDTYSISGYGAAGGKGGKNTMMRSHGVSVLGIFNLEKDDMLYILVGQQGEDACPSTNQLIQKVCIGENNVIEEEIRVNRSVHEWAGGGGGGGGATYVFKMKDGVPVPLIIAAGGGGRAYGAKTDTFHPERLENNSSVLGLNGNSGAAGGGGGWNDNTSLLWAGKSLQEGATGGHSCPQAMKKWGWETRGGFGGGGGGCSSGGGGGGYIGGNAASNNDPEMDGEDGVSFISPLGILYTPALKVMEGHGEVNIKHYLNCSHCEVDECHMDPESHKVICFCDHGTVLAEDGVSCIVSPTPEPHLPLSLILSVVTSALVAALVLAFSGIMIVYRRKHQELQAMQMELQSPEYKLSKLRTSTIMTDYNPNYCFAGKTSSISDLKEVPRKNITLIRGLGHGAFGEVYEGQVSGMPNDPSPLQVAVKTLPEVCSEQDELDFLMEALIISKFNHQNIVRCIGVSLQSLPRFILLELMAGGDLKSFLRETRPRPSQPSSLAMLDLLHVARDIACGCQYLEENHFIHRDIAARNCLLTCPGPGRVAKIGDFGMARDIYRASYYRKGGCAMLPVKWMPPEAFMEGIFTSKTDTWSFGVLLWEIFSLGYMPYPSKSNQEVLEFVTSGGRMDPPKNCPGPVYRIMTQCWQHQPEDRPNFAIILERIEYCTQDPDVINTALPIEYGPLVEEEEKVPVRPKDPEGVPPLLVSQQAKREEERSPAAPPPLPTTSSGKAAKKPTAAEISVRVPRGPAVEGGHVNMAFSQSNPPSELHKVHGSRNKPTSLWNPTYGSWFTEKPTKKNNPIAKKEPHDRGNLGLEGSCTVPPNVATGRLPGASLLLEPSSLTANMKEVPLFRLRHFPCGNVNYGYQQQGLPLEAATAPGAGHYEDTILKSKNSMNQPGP
TEST_METHOD_NOTES: ALK Kinase Assay (ELISA-type, time-resolved fluorescence)
Assay type: biochemical
CONDITION_NOTES: ALK kinase inhibition, 1 μM ATP; read-out: ALK Activity

Ask | Identify the reported IC50 for the following entry. COc1cc2c(cc1Nc1ncc(Cl)c(Nc3ccccc3S(=O)(=O)N3CC[C@H](O)C3)n1)CCN(CC(C)(C)O)CC2 [Example 1562]
Reply | < 0.1 µM

Ask | Identify the reported IC50 for the following entry. CNC(=O)c1cc(F)cc(Cl)c1Nc1nc(Nc2ccc3c(c2)CCOC(=O)N3C)ncc1Cl [Example 1758]
Reply | 1 to 10 µM

Ask | Identify the reported IC50 for the following entry. CC1(C)CCC(=O)Nc2cc(Nc3ncc(Cl)c(Nc4ccccc4OCC#N)n3)ccc21 [Example 1578]
Reply | < 0.1 µM

Ask | Identify the reported IC50 for the following entry. O=C1CCCc2ccc(Nc3ncc(Cl)c(Nc4ccccc4S(=O)(=O)N4CCCC4)n3)cc2N1 [Example 1731]
Reply | < 0.1 µM

Ask | Identify the reported IC50 for the following entry. CCN1CC(=O)Nc2cc(Nc3ncc(Cl)c(Nc4ccc(OC)cc4-n4cccn4)n3)c(OC)cc2C1 [Example 1662]
Reply | < 0.1 µM

Ask | Identify the reported IC50 for the following entry. CC(C)CN1C(=O)CCC(C)(C)c2ccc(Nc3ncc(Cl)c(N[C@H]4[C@@H](C(N)=O)[C@@H]5C=C[C@H]4C5)n3)cc21 [Example 1593]
Reply | < 0.1 µM

Ask | Identify the reported IC50 for the following entry. CNC(=O)c1cccc(F)c1Nc1nc(Nc2ccc3c(c2)CCC(=O)NC3(C)C)ncc1Cl [Example 1826]
Reply | 1 to 10 µM
